system: standard and "wild" strains of M. tuberculosis; assay: Tuberculostatic activity, all M. tuberculosis strains (overall); format: cell-based; settings: Mycobacterium tuberculosis, H37RV, read-out: MIC (over M. tuberculosis strains)

# COMPOUND, MIC
rows = [
    ("CC[C@@H](C(=O)[C@@H](C)[C@@H](O)[C@H](C)[C@@H]1O[C@@H]([C@@H](CC)C(=O)O)CC[C@@H]1C)[C@H]1O[C@]2(C=C[C@@H](O)[C@]3(CC[C@@](C)([C@H]4CC[C@](O)(CC)[C@H](C)O4)O3)O2)[C@H](C)C[C@@H]1C [SAL, Salinomycin]", "25 to 50 µg/mL"),
    ("CC[C@H](C(=O)NCc1cccc(Br)c1)C1CC[C@H](C)C([C@@H](C)[C@H](O)[C@H](C)C(=O)[C@H](CC)C2O[C@]3(C=C[C@@H](O)C4(CC[C@@](C)(C5CC[C@](O)(CC)[C@H](C)O5)O4)O3)[C@H](C)C[C@@H]2C)O1 (stereo partly drawn) [Br-m]", "> 100 µg/mL"),
    ("CC[C@H](C(=O)NCc1ccc(F)cc1)C1CC[C@H](C)C([C@@H](C)[C@H](O)[C@H](C)C(=O)[C@H](CC)C2O[C@]3(C=C[C@@H](O)C4(CC[C@@](C)(C5CC[C@](O)(CC)[C@H](C)O5)O4)O3)[C@H](C)C[C@@H]2C)O1 (stereo partly drawn) [F-p]", "50 µg/mL"),
    ("CC[C@H](C(=O)NCc1ccc([N+](=O)[O-])cc1)C1CC[C@H](C)C([C@@H](C)[C@H](O)[C@H](C)C(=O)[C@H](CC)C2O[C@]3(C=C[C@@H](O)C4(CC[C@@](C)(C5CC[C@](O)(CC)[C@H](C)O5)O4)O3)[C@H](C)C[C@@H]2C)O1 (stereo partly drawn) [NO2-p]", "50 µg/mL"),
    ("CC[C@H](C(=O)NCc1ccccc1Br)C1CC[C@H](C)C([C@@H](C)[C@H](O)[C@H](C)C(=O)[C@H](CC)C2O[C@]3(C=C[C@@H](O)C4(CC[C@@](C)(C5CC[C@](O)(CC)[C@H](C)O5)O4)O3)[C@H](C)C[C@@H]2C)O1 (stereo partly drawn) [Br-o]", "> 100 µg/mL"),
    ("NNC(=O)c1ccncc1 [Isoniazid, isoniazid, reference compound]", "3.1 to 6.25 µg/mL"),
]

----------
Tested on: S. aureus ATCC 4163
Assay: Disc-diffusion (GIZ)
Type: cell-based
Conditions: 18 h, 35 °C, un: unmeasurable
Procedure: […] Antibacterial activity was examined by the disc-diffusion method under standard conditions using Mueller-Hinton II agar medium (Becton Dickinson, Heidelberg, Germany) according to CLSI (previously NCCLS) guidelines. Antifungal activities were assessed using Muellere Hinton agar + 2% glucose and 0.5 mg/mL Methylene Blue Dye Medium. […]
Readings of GIZ for the listed molecules
MEASURED_ATTRIBUTE: GIZ (mm)

# MOLECULE, MEASURED
records = [
    ("O=C(O)c1cn(C2CC2)c2cc(N3CCNCC3)c(F)cc2c1=O [ciprofloxacin, reference compound]", 26),
    ("CC[C@@H](C(=O)[C@@H](C)[C@@H](O)[C@H](C)[C@@H]1O[C@@H]([C@@H](CC)C(=O)O)CC[C@@H]1C)[C@H]1O[C@]2(C=C[C@@H](O)[C@]3(CC[C@@](C)([C@H]4CC[C@](O)(CC)[C@H](C)O4)O3)O2)[C@H](C)C[C@@H]1C [SAL, Salinomycin]", 30),
    ("CC[C@H](C(=O)NCc1ccc(F)cc1)C1CC[C@H](C)C([C@@H](C)[C@H](O)[C@H](C)C(=O)[C@H](CC)C2O[C@]3(C=C[C@@H](O)C4(CC[C@@](C)(C5CC[C@](O)(CC)[C@H](C)O5)O4)O3)[C@H](C)C[C@@H]2C)O1 (stereo partly shown) [F-p]", 18),
]

----------
test system: LoVo/dx; test: Antiproliferative SRB assay, LoVo/dx; type: cell-based, human; conditions: Homo sapiens, LoVo/DX; doxorubicin resistant subline; 72 h, SRB; mean ± SD; read-out: IC50 LoVo/dx
pIC50: −log10 of the molar value.
MEASURED_ATTRIBUTE: pIC50

# COMPOUND, MEASURED
data = [
    ("COc1cccc2c1C(=O)c1c(O)c3c(c(O)c1C2=O)C[C@@](O)(C(=O)CO)C[C@@H]3O[C@H]1C[C@H](N)[C@H](O)[C@H](C)O1 [doxorubicin, reference compound]", 5.26),
]

----------
Readings of MIC for the listed compounds
tested on: M. tuberculosis isoniazid-sensitive strain (spec. 192); assay: Tuberculostatic activity, test-tube dilution; type: cell-based; details: Mycobacterium tuberculosis, read-out: MIC M. tuberculosis Isoniazid-Sensitive Strain
MEASURED_ATTRIBUTE: MIC (µg/mL)

# COMPOUND, MEASURED_ATTRIBUTE, UNIT_ANNOTATION, VALUE_MODIFIER, MEASURED
measured = [
    ("CC[C@H](C(=O)NCc1ccc(F)cc1)C1CC[C@H](C)C([C@@H](C)[C@H](O)[C@H](C)C(=O)[C@H](CC)C2O[C@]3(C=C[C@@H](O)C4(CC[C@@](C)(C5CC[C@](O)(CC)[C@H](C)O5)O4)O3)[C@H](C)C[C@@H]2C)O1 (stereo partly shown) [F-p]", "MIC", "µg/mL", "=", 50),
    ("CC[C@H](C(=O)NCc1ccccc1Cl)C1CC[C@H](C)C([C@@H](C)[C@H](O)[C@H](C)C(=O)[C@H](CC)C2O[C@]3(C=C[C@@H](O)C4(CC[C@@](C)(C5CC[C@](O)(CC)[C@H](C)O5)O4)O3)[C@H](C)C[C@@H]2C)O1 (stereo partly shown) [Cl-o]", "MIC", "µg/mL", "=", 50),
    ("CC[C@H](C(=O)NCc1ccccc1Br)C1CC[C@H](C)C([C@@H](C)[C@H](O)[C@H](C)C(=O)[C@H](CC)C2O[C@]3(C=C[C@@H](O)C4(CC[C@@](C)(C5CC[C@](O)(CC)[C@H](C)O5)O4)O3)[C@H](C)C[C@@H]2C)O1 (stereo partly shown) [Br-o]", "MIC", "µg/mL", ">", 100),
    ("CC[C@H](C(=O)NCc1cccc(Br)c1)C1CC[C@H](C)C([C@@H](C)[C@H](O)[C@H](C)C(=O)[C@H](CC)C2O[C@]3(C=C[C@@H](O)C4(CC[C@@](C)(C5CC[C@](O)(CC)[C@H](C)O5)O4)O3)[C@H](C)C[C@@H]2C)O1 (stereo partly shown) [Br-m]", "MIC", "µg/mL", ">", 100),
]

----------
system: LoVo; assay: Antiproliferative SRB assay, LoVo; format: cell-based, human; details: 72 h, SRB; mean ± SD; read-out: IC50 LoVo

# COMPOUND, SYSTEM_UNDER_TEST, IC50
records = [
    ("N.N.[Cl][Pt][Cl] [cisplatin, reference compound]", "LoVo", "3.7 µM"),
]

----------
tested on: HL-60; experiment: Antiproliferative MTT assay, HL-60; type: cell-based, human; conditions: Homo sapiens, HL-60; 72 h, MTT; mean ± SD; NA: not active in concentrations used (up to 100 µg/mL); read-out: IC50 HL-60

# COMPOUND, UNIT_ANNOTATION, IC50
rows = [
    ("CC[C@H](C(=O)NCc1ccc(Br)cc1)C1CC[C@H](C)C([C@@H](C)[C@H](O)[C@H](C)C(=O)[C@H](CC)C2O[C@]3(C=C[C@@H](O)C4(CC[C@@](C)(C5CC[C@](O)(CC)[C@H](C)O5)O4)O3)[C@H](C)C[C@@H]2C)O1 (stereo partly drawn)", "µM", 20.7),
    ("CC[C@H](C(=O)NCc1cccc(Br)c1)C1CC[C@H](C)C([C@@H](C)[C@H](O)[C@H](C)C(=O)[C@H](CC)C2O[C@]3(C=C[C@@H](O)C4(CC[C@@](C)(C5CC[C@](O)(CC)[C@H](C)O5)O4)O3)[C@H](C)C[C@@H]2C)O1 (stereo partly drawn)", "µM", 3.38),
    ("CC[C@H](C(=O)NCc1ccc(Cl)cc1)C1CC[C@H](C)C([C@@H](C)[C@H](O)[C@H](C)C(=O)[C@H](CC)C2O[C@]3(C=C[C@@H](O)C4(CC[C@@](C)(C5CC[C@](O)(CC)[C@H](C)O5)O4)O3)[C@H](C)C[C@@H]2C)O1 (stereo partly drawn) [Cl-p, p-chlorobenzyl amide of salinomycin]", "µM", 36.2),
    ("CC[C@H](C(=O)NCc1ccccc1Cl)C1CC[C@H](C)C([C@@H](C)[C@H](O)[C@H](C)C(=O)[C@H](CC)C2O[C@]3(C=C[C@@H](O)C4(CC[C@@](C)(C5CC[C@](O)(CC)[C@H](C)O5)O4)O3)[C@H](C)C[C@@H]2C)O1 (stereo partly drawn)", "µM", 3.18),
    ("COc1cccc2c1C(=O)c1c(O)c3c(c(O)c1C2=O)C[C@@](O)(C(=O)CO)C[C@@H]3O[C@H]1C[C@H](N)[C@H](O)[C@H](C)O1 [doxorubicin, reference compound]", "µM", 0.04),
    ("CC[C@H](C(=O)NCc1ccc(F)cc1)C1CC[C@H](C)C([C@@H](C)[C@H](O)[C@H](C)C(=O)[C@H](CC)C2O[C@]3(C=C[C@@H](O)C4(CC[C@@](C)(C5CC[C@](O)(CC)[C@H](C)O5)O4)O3)[C@H](C)C[C@@H]2C)O1 (stereo partly drawn)", "µM", 3.6),
    ("CC[C@H](C(=O)NCc1ccccc1Br)C1CC[C@H](C)C([C@@H](C)[C@H](O)[C@H](C)C(=O)[C@H](CC)C2O[C@]3(C=C[C@@H](O)C4(CC[C@@](C)(C5CC[C@](O)(CC)[C@H](C)O5)O4)O3)[C@H](C)C[C@@H]2C)O1 (stereo partly drawn)", "µM", 3.13),
    ("CC[C@H](C(=O)NCc1cccc([N+](=O)[O-])c1)C1CC[C@H](C)C([C@@H](C)[C@H](O)[C@H](C)C(=O)[C@H](CC)C2O[C@]3(C=C[C@@H](O)C4(CC[C@@](C)(C5CC[C@](O)(CC)[C@H](C)O5)O4)O3)[C@H](C)C[C@@H]2C)O1 (stereo partly drawn)", "µM", 8.78),
    ("CC[C@H](C(=O)NCc1cccc(Cl)c1)C1CC[C@H](C)C([C@@H](C)[C@H](O)[C@H](C)C(=O)[C@H](CC)C2O[C@]3(C=C[C@@H](O)C4(CC[C@@](C)(C5CC[C@](O)(CC)[C@H](C)O5)O4)O3)[C@H](C)C[C@@H]2C)O1 (stereo partly drawn)", "µM", 3.83),
]
